Cited source for all entries: PubChem BioAssay (NCI)

tested on: A549 NSCLC; test: NCI tumour cell line growth inhibition, 48 h
Kindly supply the reported TGI values for the records listed here.

State the recorded TGI for this entry: "O=C1Nc2noc(=O)nc2NO1"
> 200 µM

State the recorded TGI for this entry: "NC(=O)CSc1nc2ccccc2c(=O)n1N"
> 100 µM

State the recorded TGI for this entry: CN1C(c2ccccc2)CC(O)CC1c1ccccc1 (stereo unspecified)
> 100 µM

State the recorded TGI for this entry: "N#Cc1cc(F)cc(Oc2ccc(S(=O)(=O)C(F)F)c3c2CC(F)(F)[C@H]3O)c1"
> 100 µM

State the recorded TGI for this entry: COc1cc(C2c3cc4c(cc3[C@@H](Nc3ccc(F)cc3)C3COC[C@H]23)OCO4)cc(OC)c1O (stereo partly specified)
10.6 µM

State the recorded TGI for this entry: "Cc1ccccc1Nc1cc(O)c2c(=O)cc(-c3ccccc3)oc2c1"
> 100 µM

* * *

system: UACC-62 melanoma; experiment: NCI tumour cell line growth inhibition, 48 h
Kindly supply the reported TGI values for the records listed here.

State the recorded TGI for this entry: "CN(C)c1cccc2c(S(=O)(=O)NCCN)cccc12"
> 100 µM

State the recorded TGI for this entry: "CC(C)(C)OC(=O)N[C@H]1CC(=O)c2ccccc2N(CC(=O)O)C1=O"
> 100 µM

State the recorded TGI for this entry: "COc1ccc(/C=C/C(=O)c2c(-c3ccccc3)nn(C)c(=O)c2N2CCCCC2)cc1"
44.8 µM

State the recorded TGI for this entry: "O=C([O-])c1ccc([I+]c2ccccc2)cc1"
> 100 µM

State the recorded TGI for this entry: "O=C1c2cccc3c(N4CCOCC4)ccc(c23)C(=O)N1CCN1CCN(CCCCCN2CCN(CCN3C(=O)c4cccc5c(N6CCOCC6)ccc(c45)C3=O)CC2)CC1"
> 100 µM

State the recorded TGI for this entry: O=c1c2ccccc2nc(-c2cccc(Cl)c2)n1NC1OC(CO)C(O)C(O)C1O (stereo not given)
> 100 µM

State the recorded TGI for this entry: "COC1=C(OC)C(=O)C(Cc2c(Cl)nc3sccn23)=C(C)C1=O"
20.6 µM

State the recorded TGI for this entry: "CC(C)(C)O/N=C/c1cc(NC(=S)c2ccccc2)ccc1Cl"
32.7 µM

State the recorded TGI for this entry: "Cc1cccc2c1nc1n2C(=O)c2ccccc2-1"
> 100 µM

State the recorded TGI for this entry: "Cc1cc2nc(N3C(=O)/C(=C/Cc4ccco4)N=C3c3ccccc3)sc2cc1C"
> 100 µM

* * *

tested on: SN12C renal; experiment: NCI tumour cell line growth inhibition, 48 h
Kindly supply the reported TGI values for the records listed here.

State the recorded TGI for this entry: C[C@H]1CCC/C=C/[C@@H]2C[C@H](OC3OC(CO)C(O)C(O)C3O)C[C@H]2[C@H](O)/C=C/C(=O)O1 (some centres undefined)
> 100 µM

State the recorded TGI for this entry: "CC(=O)O[C@H]1CC[C@@H](OC(C)=O)[C@H]2[C@H](O)[C@H](O)[C@@H]1n1c(=O)n(-c3ccccc3)c(=O)n12"
> 100 µM

State the recorded TGI for this entry: "CC(C)(C)C(=O)c1c(O)c2ccccc2c2ccccc2c1=O"
> 100 µM

State the recorded TGI for this entry: COc1cc(C2c3cc4c(cc3[C@@H](Nc3ccc(F)cc3)C3COC[C@H]23)OCO4)cc(OC)c1O (some centres undefined)
23.1 µM
